- experimental_system: T1, recombinant human GPC3 (glypican-3) (human, UniProt P51654 25-559)
- T1 construct: also called huGPC3; hGPC3
- assay_method_text: SPR (Biacore T200), antibody captured by anti-Fc, GPC3 injected, single-cycle kinetics, 1:1 fit; average
pKd: −log10 of the molar value.
Reported pKd values for a set of binders
property_name: pKd

{"binder": "v40218, H18L6_LC_N33H mAb (antibody, human IgG1, kappa, V domains shown, no number given for this variant) VH: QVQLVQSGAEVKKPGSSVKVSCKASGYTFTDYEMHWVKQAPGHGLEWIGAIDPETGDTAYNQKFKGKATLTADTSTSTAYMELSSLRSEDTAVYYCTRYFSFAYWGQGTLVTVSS VL: EIVLTQSPATLSLSPGERATISCRSSQSLRHSHGNTYLQWYQQKPGQAPRLLIYKVSNRFSGVPARFSGSGSGTDFTLTISSLEPEDFAVYFCYQSKHVPYTFGGGTKVEIKR", "property_name": "pKd", "test_value": 7.70}
{"binder": "v40216, H18L6_LC_N33R mAb (antibody, human IgG1, kappa, V domains shown, no number given for this variant) VH: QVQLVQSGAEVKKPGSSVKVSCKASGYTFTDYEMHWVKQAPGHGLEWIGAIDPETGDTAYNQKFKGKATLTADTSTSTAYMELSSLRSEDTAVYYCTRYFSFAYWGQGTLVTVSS VL: EIVLTQSPATLSLSPGERATISCRSSQSLRHSRGNTYLQWYQQKPGQAPRLLIYKVSNRFSGVPARFSGSGSGTDFTLTISSLEPEDFAVYFCYQSKHVPYTFGGGTKVEIKR", "property_name": "pKd", "test_value": 7.70}
{"binder": "v40220, H18L6_LC_N33Q mAb (antibody, human IgG1, kappa, V domains shown, no number given for this variant) VH: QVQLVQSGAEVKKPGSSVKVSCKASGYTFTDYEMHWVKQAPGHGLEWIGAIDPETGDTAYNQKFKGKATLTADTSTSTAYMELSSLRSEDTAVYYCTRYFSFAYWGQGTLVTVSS VL: EIVLTQSPATLSLSPGERATISCRSSQSLRHSQGNTYLQWYQQKPGQAPRLLIYKVSNRFSGVPARFSGSGSGTDFTLTISSLEPEDFAVYFCYQSKHVPYTFGGGTKVEIKR", "property_name": "pKd", "test_value": 7.76}
{"binder": "v40204, H18L6_LC_G34E mAb (antibody, human IgG1, kappa, V domains shown, no number given for this variant) VH: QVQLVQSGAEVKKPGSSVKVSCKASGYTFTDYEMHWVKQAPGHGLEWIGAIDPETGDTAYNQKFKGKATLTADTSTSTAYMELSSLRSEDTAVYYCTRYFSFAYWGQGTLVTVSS VL: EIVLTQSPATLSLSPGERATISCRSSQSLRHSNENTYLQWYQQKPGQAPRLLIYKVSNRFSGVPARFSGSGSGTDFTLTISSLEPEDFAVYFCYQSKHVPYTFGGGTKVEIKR", "property_name": "pKd", "test_value": 7.83}
{"binder": "v40208, H18L6_LC_G34Q mAb (antibody, human IgG1, kappa, V domains shown) VH: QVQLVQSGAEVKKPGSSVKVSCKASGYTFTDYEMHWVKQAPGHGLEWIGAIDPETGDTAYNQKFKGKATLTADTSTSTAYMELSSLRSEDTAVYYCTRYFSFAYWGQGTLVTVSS VL: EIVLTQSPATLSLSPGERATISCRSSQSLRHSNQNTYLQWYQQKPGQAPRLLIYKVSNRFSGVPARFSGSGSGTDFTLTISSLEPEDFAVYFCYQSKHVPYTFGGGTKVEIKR", "property_name": "pKd", "test_value": 7.97}
